Test system: K4 kissing-loop RNA reporter
Test: apparent KD of K4 kissing-loop reporter; higher = weaker reporter binding
Details: Eterna round: R107; input ligand: arginine 13.2 mM
# apparent KD of K4 kissing-loop reporter >= 0.09 µM gives yes, anything below gives no

construct sequence	assayed system	discrete label
AAGCUACGCGCGGCCGCCACUGUUUAUGUAUAAAUGCGUCGCUCACUGCUUUAGUGAUGUUGAAGCAGGACCGGGCGAAUGGUAC [theeternabot_exclusion_KL_Trp_B_15]	K4 kissing-loop RNA reporter	no
CCGCCAUCGUCAGAUACCAGGCUGAUGGCGGUAACCGCCAAGCGAGUGAUGUUCGCAUCAGUCCCUUGGCAGCUGACGAAGACUG [#16 K4 Theophylline B Same State]	K4 kissing-loop RNA reporter	no
CGAGUGAUGUUCGUUUUAAAAUUUUUUUGACAGGAUAUGCGGAAACGCAGAAGGGUCACCUUUGAGUUAAAAGAAAUUAAAUUUU [Ex FMN 16]	K4 kissing-loop RNA reporter	yes
UAGGAGUGAUGUUCCUUUAGCAGGUAGGAAGGAGCGCCCAUUUGGGCAGGUAGGUCGCCUACUGGCCCUGAGUUAAACCUUAGGC [#11 K4 Arginine A Same State]	K4 kissing-loop RNA reporter	yes
UUAUCAUCAGCGGCCGCCACUGCAAAUUGGAGUGAUGUUCCAAGCGUGGAUAUUGAAAUUACUAGUAGGACCGGGUUGAUGAAUU [AK 2 Ex Trypt B]	K4 kissing-loop RNA reporter	yes
AAGUGAUGUUGUAGUGAUGUUGUGAUGUUGCAGGAUAUAUAGUGAUGUAGAAGGGUAAGUACUGAUUUUUUUUGUGAGUGAUGUU [bbgvzrmullin]	K4 kissing-loop RNA reporter	no

###

Tested on: MS2 coat protein
Test: apparent KD of MS2 coat protein; designed switch direction (-1 OFF switch, 1 ON switch): 1; higher = weaker reporter binding
Conditions: input ligand: none
# apparent KD of MS2 coat protein >= 1000 nM gives true, anything below gives false

construct sequence	discrete label
GGUAGGUUACUACCAGACAUGAGGAUCACCCAUGUAAGUGGGAAGGAUAUGGUACCGUUUCGGUACCAGAAGGUCCUAAAUGAG [JL SSNG3 1.46] (Eterna round: R96, puzzle: Same State NG 3)	true
GGUAGGUUACUACCAAACAUGAGGAUCACCCAUGUAAAUGGGAAGGAUAUGGUACCGUUUCGGUACCAGAAGGUCCAAAAUAUU [JL Fiskers NG3ss - 2 final mod] (Eterna round: R96, puzzle: Same State NG 3)	true
GGUGGGUUACUACCCACACAUGAGGAUCACCCAUGUAUUGGGAAGGAUAUGGUACCUAUUUGGUACCAGAAGGUCCUGAAGGUG [SS-NG3-LRO16] (Eterna round: R96, puzzle: Same State NG 3)	true
AAGUGGUCCCAAGGAUAUGUCCAAAAGAAGGGCUGAGACAUGAGGAUCACCCAUGUCUCGGCGGUACAGAAGGUGGAGACAGGU [Solaena] (Eterna round: R96, puzzle: Same State NG 2)	false
UGGCUCAGAGCAGGAUAUAUGUCUCGAGCUUCGGCUCGAGACAUGAGGAUCACCCAUGUAAUAACAUAGAAGGGCUCUGAGCCA [SSNG2/1-B2] (Eterna round: R96, puzzle: Same State NG 2)	false

###

System: K4 kissing-loop RNA reporter;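 also: bound reporter read as fluorescence of individual clusters on recovered sequencing chips by microscopy, with normalized cluster intensities fitted with a binding model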
Assay: apparent KD of K4 kissing-loop reporter; higher = weaker reporter binding
Conditions: Eterna round: R107; input ligand: tryptophan 2.4 mM
Measured apparent KD of K4 kissing-loop reporter accompanies every entry in the list below.
value type: apparent KD of K4 kissing-loop reporter (µM)

> print(dat)
                         construct.sequence                               value.type  scale.unit  measured.value
1  AAUUCAAACUGAAGGAGCGAGCAAAUCGGAGUGAUGUUCCAAGCGAGUGAUGUUCGCAUAGCUCAGGUAGGUCGCAGUUUGGAUA [Same State Arginie B GF 13]  apparent KD of K4 kissing-loop reporter          µM           0.101
2  GCAGUGAUGUUGCGGAUGUACAGUGGCGUGCGAGGACCGGUACGGCCGCCACUCGUACAGAGCGAGCUAAUACAUCGAUAGGUGA [whbob_SS_Tryp_A_m5]  apparent KD of K4 kissing-loop reporter          µM           0.241
3  CACUUACGUAGUGAUGUUACGAUCUCUGAUACCAGACAACUCUAAGUCCCUUGGCAGCAGUCAUUUUGCUUAUAAUUUACUCAAA [JR_ExcTheophyA_Sub015]  apparent KD of K4 kissing-loop reporter          µM           0.508

Origin of values: the supplement of paper PMC9170038
